Source: the supplement of paper PMC10266784

B1: library; numbered along this chain (parent)
chain: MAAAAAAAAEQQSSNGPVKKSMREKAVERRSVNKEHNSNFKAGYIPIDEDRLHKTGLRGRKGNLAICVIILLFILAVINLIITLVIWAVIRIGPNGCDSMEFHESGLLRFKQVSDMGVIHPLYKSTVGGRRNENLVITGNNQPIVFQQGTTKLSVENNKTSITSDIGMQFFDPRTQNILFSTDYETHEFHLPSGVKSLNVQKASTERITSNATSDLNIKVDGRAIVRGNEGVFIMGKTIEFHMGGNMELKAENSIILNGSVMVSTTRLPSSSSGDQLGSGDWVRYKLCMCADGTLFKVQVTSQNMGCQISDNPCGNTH

# Variants of: B1
# experiment summary: SGCB cell-surface expression functional score (HA stain, bin4 vs bin1, normalised to synonymous) (log10 ratio); higher = more cell-surface SGCB (functional)
measured quantity: SGCB cell-surface expression functional score (log10)

1. E49H | -0.23
2. V32W | -0.05
3. Q148E | -0.58
4. L153Y | -1.24
5. K25E | 0.07
6. G293A | -0.12
7. S21M | -0.02
8. G259A | 0.9
9. R131C | 0.15
10. R23H | 0.2
11. I45G | -0.04
12. V298M | 0.21
13. N157C | 0.02
14. G280R | -0.45
15. N316E | -0.68
16. T213P | -1.5
17. W87S | 0.18
18. G149P | -1.17
19. S99T | -0.4
20. S272K | 0.11
21. S21H | 0.03
22. Q308T | -0.05
23. T238W | -0.07
24. V298G | -0.37
25. D221R | 0.19
26. H242V | 0.71
27. M168Y | -1.79
28. A5G | 0.2
29. S271K | 0.11
30. A251V | 0.46
31. Y285I | -1.22
32. S310T | -0.25
33. G59Q | -0.24
34. T213A | -0.44
35. Q147D | -0.27
36. V127L | -0.04
37. D292E | 0.1
38. D221W | 0.8
39. V220E | -0.86
40. S279E | 0.22
41. V195N | -1.73
42. L295R | -0.52
43. A5K | 0.07
44. I256C | -0.43
45. D221E | 0.01
46. G96R | -1.51
